- SYSTEM: T1, CXCR3 (Homo sapiens, UniProt P49682)
- T1 chain: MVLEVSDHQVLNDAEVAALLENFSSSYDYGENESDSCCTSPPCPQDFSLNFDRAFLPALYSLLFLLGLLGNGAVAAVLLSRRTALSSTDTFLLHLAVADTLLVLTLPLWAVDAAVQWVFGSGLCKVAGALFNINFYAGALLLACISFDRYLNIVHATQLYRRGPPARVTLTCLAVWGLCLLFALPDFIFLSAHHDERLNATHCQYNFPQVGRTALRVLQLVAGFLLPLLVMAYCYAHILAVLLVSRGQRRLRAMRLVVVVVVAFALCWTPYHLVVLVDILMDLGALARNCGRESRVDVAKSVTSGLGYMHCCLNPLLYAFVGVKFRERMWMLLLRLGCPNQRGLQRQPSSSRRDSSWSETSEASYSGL
- PROCEDURE DETAILS: competition with 125I-CXCL10 on L1.2 cells
READOUT TYPE: pIC50
Lab note: report pIC50 as minus log10 of the concentration in molar units, number only.

Given CXCL11 (protein) FPMFKRGRCLCIGPGVKAVKVADIEKASIMYPSNNCDKIEVIITLKENKGQRCLNPKSKQARLIIKKVERKNF , state its recorded pIC50.
9.40
